Reference for the values: PubChem BioAssay (NCI)

tested on: MALME-3M melanoma; assay: NCI tumour cell line growth inhibition, 48 h

Molecule: CC(C)CC(N)C(=O)Nc1ccc2ccccc2c1 (stereo unspecified)
Unit abbreviation: µM
Comparison symbol: >
TGI: 100
//
Molecule: CC(C)COc1nc2c(c(=O)n(C)c(=O)n2C)n1C
Unit abbreviation: µM
Comparison symbol: >
TGI: 100
//
Molecule: NC1=NN(c2ccccc2)C(=O)C1C(=O)C(=O)Nc1ccc(Cl)c(Cl)c1 (stereo unspecified)
Unit abbreviation: µM
Comparison symbol: >
TGI: 100
//
Molecule: CSCSCC(CO)NC(=O)/C(C)=C\c1c(C)[nH]c(=O)[nH]c1=O (stereo unspecified)
Unit abbreviation: µM
Comparison symbol: >
TGI: 250
//
Molecule: CSc1ccc(Nc2cc(=O)[nH]c(=O)[nH]2)cc1
Unit abbreviation: µM
Comparison symbol: >
TGI: 100
//
Molecule: O=C(c1ccc(Cl)cc1)c1ccc(OCCCOc2ccc(C(=O)c3ccc(Cl)cc3)cc2Cl)c(Cl)c1
Unit abbreviation: µM
Comparison symbol: >
TGI: 100
//
Molecule: C/C=C1\CN2CCc3c([nH]c4ccccc34)C2CC1CCO (stereo unspecified)
Unit abbreviation: µM
Comparison symbol: >
TGI: 100
//
Molecule: C=CC1CN(C(=O)OCC)N(C(=O)OCC)C1CCc1ccccc1 (stereo unspecified)
Unit abbreviation: µM
Comparison symbol: >
TGI: 100
//
Molecule: COc1cccc(C2c3cc4c(cc3OC(NNS(=O)(=O)c3ccc(C)cc3)C2C)OCO4)c1OC (stereo unspecified)
Unit abbreviation: µM
Comparison symbol: =
TGI: 49.9
//
Molecule: c1ccc(CNCCN(CCNCc2ccccn2)Cc2ccc3ccccc3c2)nc1
Unit abbreviation: µM
Comparison symbol: =
TGI: 3.63
//
Molecule: C=C(C(=O)OC)[C@@H]1C[C@@H](OC(C)=O)C2=C[C@H](C[C@@]3(C)O[C@@H]3C3=CC(C)=C(O3)[C@H]1OC(C)=O)OC2=O
Unit abbreviation: µM
Comparison symbol: =
TGI: 30.7
//
Molecule: Clc1cccc(C2N3CCCCC3[C@@H]3c4[nH]c5ccccc5c4CCN23)c1 (stereo partly specified)
Unit abbreviation: µM
Comparison symbol: =
TGI: 42.2
//
Molecule: O=c1c(Cl)c(Cl)cnn1CCCl
Unit abbreviation: µM
Comparison symbol: =
TGI: 7.14
//
Molecule: COc1ccc(N=NC(=O)NC(CC(C)C)C(=O)NCC(=O)O)cc1 (stereo unspecified)
Unit abbreviation: µM
Comparison symbol: >
TGI: 100
//
Molecule: O=C(N/N=C/c1cc(Br)cc(Br)c1[O-])c1ccccc1O.O=C(N/N=C/c1cc(Br)cc(Br)c1[O-])c1ccccc1O.[Zn+2]
Unit abbreviation: µM
Comparison symbol: =
TGI: 8.77
//
Molecule: CC(=O)[C@H]1CCC/C=C/[C@@H]2C[C@H](O)C[C@H]2[C@H](O)/C=C/C(=O)O1
Unit abbreviation: µM
Comparison symbol: =
TGI: 3.4
//
Molecule: CC(=O)NNc1nc(C)c(C(/C=C/c2ccccc2O)=N/N=C(N)N)s1
Unit abbreviation: µM
Comparison symbol: >
TGI: 100
//
Molecule: CCN(Cc1cccc(Cl)c1)c1ccc(CO)c(Cl)c1
Unit abbreviation: µM
Comparison symbol: =
TGI: 32.8
//
Molecule: [B-][P+](CC[P+]1([B-])[C@@H](C)[C@@H](O)[C@H](O)[C@@H]1C)(c1ccccc1)c1ccccc1OC (stereo partly specified)
Unit abbreviation: µM
Comparison symbol: =
TGI: 24.4
//
Molecule: CCNC(=O)Oc1ccc(/C(=C(/C)Cc2ccc(OC)cc2)c2ccc(OCCN(CC)CC)cc2)cc1
Unit abbreviation: µM
Comparison symbol: =
TGI: 3.22
//
Molecule: CCOC(=O)CC(NC(=O)c1[nH]cnc1/N=N/N(C)C)C(=O)OCC (stereo unspecified)
Unit abbreviation: µM
Comparison symbol: >
TGI: 100
//
Molecule: Cc1cc(=O)n(-c2cc3cccccc-3n2)[nH]1
Unit abbreviation: µM
Comparison symbol: =
TGI: 9.84
//
Molecule: CN(C)c1c(C2OC(CO)C(O)C2O)c(=O)c1=O (stereo unspecified)
Unit abbreviation: µM
Comparison symbol: >
TGI: 100
//
Molecule: C/C(=N\NC(=O)c1ccccc1O)c1cccc(/C(C)=N/NC(=O)c2ccccc2O)n1.O=S(=O)([O-])[O-].[Fe+2]
Unit abbreviation: µM
Comparison symbol: >
TGI: 100
//
Molecule: C=CCc1c(O)c2nsnc2c2nsnc12
Unit abbreviation: µM
Comparison symbol: >
TGI: 10
//
Molecule: C=CCC(N[C@@H](CO)c1ccccc1)c1cn(C(=O)OCC)c2ccccc12 (stereo partly specified)
Unit abbreviation: µM
Comparison symbol: =
TGI: 39.1
//
Molecule: C=CCC(N[C@H](CO)c1ccccc1)c1cn(Cc2ccccc2Cl)c(=O)n(Cc2ccccc2Cl)c1=O (stereo partly specified)
Unit abbreviation: µM
Comparison symbol: =
TGI: 81
//
Molecule: O=C(CSCC(=O)N/N=C\c1cccc([N+](=O)[O-])c1)N/N=C\c1cccc([N+](=O)[O-])c1
Unit abbreviation: µM
Comparison symbol: =
TGI: 69.1
//
Molecule: NS(=O)(=O)c1cc(C(=O)O)c(O)c2ccccc12
Unit abbreviation: µM
Comparison symbol: >
TGI: 100
//
Molecule: CC(C)C(OC(=O)c1ccc(NCC2=CC(=O)C=CC2=O)cc1)C(C)C
Unit abbreviation: µM
Comparison symbol: =
TGI: 25.1
//
Molecule: CCCCCCCCCOCC(COP(=O)([O-])OCC[N+](C)(C)C)OC (stereo unspecified)
Unit abbreviation: µM
Comparison symbol: >
TGI: 100
